// provenance: paper PMC3137622

# Test system: monoclonal antibody 7C11 (anti-Bla g 2)
# Sequence (chain, as listed by the source, chain 2 of 2, other chains not shown): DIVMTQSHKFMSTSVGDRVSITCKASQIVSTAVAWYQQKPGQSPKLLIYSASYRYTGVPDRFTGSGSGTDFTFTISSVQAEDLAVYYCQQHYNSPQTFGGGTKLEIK
# Assay notes: competition ELISA
# Stated conditions: chain shown with the change; competitor concentration 1 µg/ml; solid phase rBla g 2-N93Q; parent: est. 5; read off a plot
Values of other: Biotinylated mAb 7C11 bound to Bla g 2 (%) greater than or equal to 50% map to Condition met; values below map to Condition not met.

Binder: recombinant Bla g 2-N93Q E86A (protein) VPLYKLVHVFINTQYAGITKIGNQNFLTVFDSTSCNVVVASQECVGGACVCPNLQKYEKLKPKYISDGNVQVKFFDTGSAVGRGIADSLTISQLTTSQQDIVLADELSQEVCILSADVVVGIAAPGCPNALKGKTVLENFVEENLIAPVFSIHHARFQDGEHFGEIIFGGSDWKYVDGEFTYVPLVGDDSWKFRLDGVKIGDTTVAPAGTQAIIDTSKAIIVGPKAYVNPINEAIGCVVEKTTTRRICKLDCSKIPSLPDVTFVINGRNFNISSQYYIQQNGNLCYSGFQPCGHSDHFFIGDFFVDHYYSEFNWENKTMGFGRSVESV
Classification: Condition not met
//
Binder: recombinant Bla g 2-N93Q R83A (protein) VPLYKLVHVFINTQYAGITKIGNQNFLTVFDSTSCNVVVASQECVGGACVCPNLQKYEKLKPKYISDGNVQVKFFDTGSAVGAGIEDSLTISQLTTSQQDIVLADELSQEVCILSADVVVGIAAPGCPNALKGKTVLENFVEENLIAPVFSIHHARFQDGEHFGEIIFGGSDWKYVDGEFTYVPLVGDDSWKFRLDGVKIGDTTVAPAGTQAIIDTSKAIIVGPKAYVNPINEAIGCVVEKTTTRRICKLDCSKIPSLPDVTFVINGRNFNISSQYYIQQNGNLCYSGFQPCGHSDHFFIGDFFVDHYYSEFNWENKTMGFGRSVESV
Classification: Condition not met
//
Binder: recombinant Bla g 2-N93Q D68aA (protein) VPLYKLVHVFINTQYAGITKIGNQNFLTVFDSTSCNVVVASQECVGGACVCPNLQKYEKLKPKYISAGNVQVKFFDTGSAVGRGIEDSLTISQLTTSQQDIVLADELSQEVCILSADVVVGIAAPGCPNALKGKTVLENFVEENLIAPVFSIHHARFQDGEHFGEIIFGGSDWKYVDGEFTYVPLVGDDSWKFRLDGVKIGDTTVAPAGTQAIIDTSKAIIVGPKAYVNPINEAIGCVVEKTTTRRICKLDCSKIPSLPDVTFVINGRNFNISSQYYIQQNGNLCYSGFQPCGHSDHFFIGDFFVDHYYSEFNWENKTMGFGRSVESV
Classification: Condition met
//
Binder: recombinant Bla g 2-N93Q K132A (protein) VPLYKLVHVFINTQYAGITKIGNQNFLTVFDSTSCNVVVASQECVGGACVCPNLQKYEKLKPKYISDGNVQVKFFDTGSAVGRGIEDSLTISQLTTSQQDIVLADELSQEVCILSADVVVGIAAPGCPNALAGKTVLENFVEENLIAPVFSIHHARFQDGEHFGEIIFGGSDWKYVDGEFTYVPLVGDDSWKFRLDGVKIGDTTVAPAGTQAIIDTSKAIIVGPKAYVNPINEAIGCVVEKTTTRRICKLDCSKIPSLPDVTFVINGRNFNISSQYYIQQNGNLCYSGFQPCGHSDHFFIGDFFVDHYYSEFNWENKTMGFGRSVESV
Classification: Condition met
//
Binder: recombinant Bla g 2-N93Q K65A (protein) VPLYKLVHVFINTQYAGITKIGNQNFLTVFDSTSCNVVVASQECVGGACVCPNLQKYEKLKPAYISDGNVQVKFFDTGSAVGRGIEDSLTISQLTTSQQDIVLADELSQEVCILSADVVVGIAAPGCPNALKGKTVLENFVEENLIAPVFSIHHARFQDGEHFGEIIFGGSDWKYVDGEFTYVPLVGDDSWKFRLDGVKIGDTTVAPAGTQAIIDTSKAIIVGPKAYVNPINEAIGCVVEKTTTRRICKLDCSKIPSLPDVTFVINGRNFNISSQYYIQQNGNLCYSGFQPCGHSDHFFIGDFFVDHYYSEFNWENKTMGFGRSVESV
Classification: Condition not met
